# procedure_details: logP by HPLC on reversed phase columns, method [a] (pH 2.3)
# Type: physicochemical
# assay_setup: method [a]: pH 2.3, 0.1% phosphoric acid and acetonitrile as eluent; main isomer
Overview of reported log p across a group of compounds:

Cc1cn(-c2cc(-c3cn(CC(C)C)nc3-c3ccc(Cl)s3)ccn2)cn1 | 2.56^[a]
CCC(C)n1cc(-c2ccncc2)c(-c2ccc(C(F)(F)F)s2)n1 (stereo not shown) | 2.58^[a]
CC(=O)Nc1nccc(-c2cn(CC(C)C)nc2-c2ccc(Cl)s2)n1 | 3.04^[a]

# input for lookup
INPUT: State its log p: CC(C)Cn1cc(-c2ccnc(NC(=O)C(C)C)c2)c(-c2ccc(Cl)s2)n1
OUTPUT: 3.83^[a]
